- assay_text: physchem
- Assay type: physicochemical
- run_conditions: pH 9, aqueous buffer
Peptide text beside a SMILES is read from it.
readout: solubility thermodynamic at 24 h
For clarity, give the value followed by its unit.

Exam item: Entry CC(C)[C@H](NC(=O)[C@@H](NC(=O)[C@H](Cc1ccccc1)NC(=O)[C@@H](NC(=O)[C@@H](NC(=O)[C@@H](N)Cc1ccccc1)[C@@H](C)O)[C@@H](C)O)[C@@H](C)O)C(=O)N[C@H](C(=O)O)[C@@H](C)O [CSP7 (ammonium counterion), FTTFTVT] (H-FTTFTVT-OH; N-terminus and C-terminus assumed) : reported solubility thermodynamic at 24 h = ?
Marked response: 2300 µg/mL
